Cited source for all entries: paper PMC7926675

Target: tNhe3b (trout Na+/H+ exchanger Nhe3b) (Oncorhynchus mykiss, UniProt B6VDZ5)
Construct: GFP-tagged tNhe3b (cDNA identical to FJ376630.1) stably expressed in NHE-deficient AP-1 cells
Sequence (B6VDZ5 1-842): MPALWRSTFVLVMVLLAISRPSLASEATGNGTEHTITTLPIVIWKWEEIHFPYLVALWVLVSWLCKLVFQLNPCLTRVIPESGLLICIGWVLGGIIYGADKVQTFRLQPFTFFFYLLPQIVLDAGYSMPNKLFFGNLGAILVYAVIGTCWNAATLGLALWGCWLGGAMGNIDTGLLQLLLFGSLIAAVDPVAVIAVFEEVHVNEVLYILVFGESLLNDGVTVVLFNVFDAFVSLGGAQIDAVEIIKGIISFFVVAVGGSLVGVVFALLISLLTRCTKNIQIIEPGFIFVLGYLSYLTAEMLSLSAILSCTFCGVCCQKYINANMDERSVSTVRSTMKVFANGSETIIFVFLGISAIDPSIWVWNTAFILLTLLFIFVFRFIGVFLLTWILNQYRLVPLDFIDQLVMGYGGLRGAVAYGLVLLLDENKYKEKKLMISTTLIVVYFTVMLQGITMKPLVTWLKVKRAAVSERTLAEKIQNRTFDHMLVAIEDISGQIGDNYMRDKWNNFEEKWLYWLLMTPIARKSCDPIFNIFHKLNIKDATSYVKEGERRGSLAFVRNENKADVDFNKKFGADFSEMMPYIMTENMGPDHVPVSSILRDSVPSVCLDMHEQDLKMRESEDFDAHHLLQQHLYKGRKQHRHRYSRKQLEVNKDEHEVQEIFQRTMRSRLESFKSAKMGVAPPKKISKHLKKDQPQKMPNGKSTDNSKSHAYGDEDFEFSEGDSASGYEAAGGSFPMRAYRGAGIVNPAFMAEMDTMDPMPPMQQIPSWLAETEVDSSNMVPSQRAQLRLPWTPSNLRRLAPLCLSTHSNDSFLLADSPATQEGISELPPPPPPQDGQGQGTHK
Test: two-pulse ammonium chloride acid-load pHi recovery assay (BCECF) in stably transfected AP-1 cells; significant only at […]
pIC50: −log10 of the molar value.
readout.name: pIC50

**Query** Item N=C(N)NC(=O)c1nc(Cl)c(N)nc1N [amiloride] : provide pIC50
**Result** ~3.47
